Tested System: T1, histidine-tagged human Siglec-7 (NovoProtein) (human, UniProt Q9Y286 19-353)
T1 construct: Bought protein; also called recombinant human Siglec-7; recombinant Siglec-7; not shown: histidine tag
T1 sequence (Q9Y286 19-353 limits assumed): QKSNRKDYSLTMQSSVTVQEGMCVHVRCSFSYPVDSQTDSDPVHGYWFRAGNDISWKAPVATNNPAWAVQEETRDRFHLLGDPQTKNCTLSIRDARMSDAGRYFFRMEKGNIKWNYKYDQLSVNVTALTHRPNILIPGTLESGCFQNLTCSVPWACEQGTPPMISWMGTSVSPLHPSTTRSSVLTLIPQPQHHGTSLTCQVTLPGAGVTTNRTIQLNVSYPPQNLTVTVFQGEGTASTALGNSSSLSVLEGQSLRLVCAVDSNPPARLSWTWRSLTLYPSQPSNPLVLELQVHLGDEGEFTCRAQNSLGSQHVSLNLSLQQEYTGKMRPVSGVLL
Test Name: BLI, antibody captured
Measured Endpoint: fold improvement over S7AB-H8 (fold)
Answer in fold, number only, no unit symbol.

Use these answered entries as a reference point.
1. S7AB-H8.31 (antibody, V domains shown) VH: QVQLVQSGAEVKKPGASVKVSCKASGYAFTETWMNWVRQAPGQGLEWIGRIFPGLGHTNYAQKFQGRATLTEDTSTSTAYMELSSLRSEDTAVYYCARDYSDYYFDYWGQGTLVTVSS VL: DIQMTQSPSSLSASVGDRVTITCRGSQDINTYLNWYQQKPGKAPKLLIYYTSRLHSGVPSRFSGSGSGTDYTLTISSLQPEDFATYYCQQGGTLPWTFGQGTKLEIK: 1.4
2. S7AB-H8.15 (antibody, V domains shown) VH: QVQLVQSGAEVKKPGASVKVSCKASGYAFTEAWMNWVRQAPGQGLEWIGRIFPGYGHTNYAQKFQGRATLTEDTSTSTAYMELSSLRSEDTAVYYCARDYSDYYFDYWGQGTLVTVSS VL: DIQMTQSPSSLSASVGDRVTITCRGSQDINTYLNWYQQKPGKAPKLLIYYTSRLHSGVPSRFSGSGSGTDYTLTISSLQPEDFATYYCQGGNTLPWTFGQGTKLEIK: 0.4

Proceed to the following item.
-- ask Retrieve fold improvement over S7AB-H8 measured for S7AB-H8.4 (antibody, V domains shown) VH: QVQLVQSGAEVKKPGASVKVSCKASGYAFTAAWMNWVRQAPGQGLEWIGRIFPGLGHTNYAQKFQGRATLTEDTSTSTAYMELSSLRSEDTAVYYCARDYSDYYFDYWGQGTLVTVSS VL: DIQMTQSPSSLSASVGDRVTITCRGSQDINTYLNWYQQKPGKAPKLLIYYTSRLHSGVPSRFSGSGSGTDYTLTISSLQPEDFATYYCQQGNLLPWTFGQGTKLEIK and print it.
-- reply 4.9

Origin of measurements: patent US20210246204A1
